tested.on: RET (human)
procedure.text: radiometric filter-binding kinase assay, Kinase HotSpot
condition.parameters: compound 0.5 µM; ATP 10 µM
reported.endpoint: residual activity (%)
Field format: number, assumed %, no unit text.

Sample `O=C(Nc1cccc(Nc2cc(Nc3cccc(C(F)(F)F)c3)ncn2)c1)C1CC1` — what was its residual activity?
109

Sample `COc1cc2ncc(-c3ccccc3)nc2cc1OC` — what was its residual activity?
84.4

Sample `O=C1Cc2c([nH]c3ccc(Br)cc23)-c2ccccc2N1` — what was its residual activity?
102

Sample `CC(C)c1nn(-c2c(Cl)cccc2Cl)c2nc(Cc3ccc(OCCO)cc3)nc(O)c12` — what was its residual activity?
97.5

Sample `Cn1cnc2cc3c(Nc4cccc(Br)c4)ncnc3cc21` — what was its residual activity?
54.4

Sample `COc1ccc(CNC(=O)Nc2ncc([N+](=O)[O-])s2)cc1` — what was its residual activity?
97.9

Sample `CN(C)C[C@H]1CCn2c(c(C3=C(c4cn(C)c5ccccc45)C(=O)NC3=O)c3ccccc32)C1` — what was its residual activity?
99.7

Sample `CC(C)[C@H](CO)Nc1nc(Nc2cc(N)cc(Cl)c2)c2ncn(C(C)C)c2n1` — what was its residual activity?
61.6

Sample `COc1cc2ncnc(N3CCN(C(=O)Nc4ccc(Oc5ccccc5)cc4)CC3)c2cc1OC` — what was its residual activity?
104

Sample `Cn1nc2c3c(cccc31)C(=O)c1ccccc1-2` — what was its residual activity?
83.8

Sample `Cc1nc2cc3nc(-c4cccs4)cnc3cc2n1C` — what was its residual activity?
68.9
